Tested on: NCI-H226 lung
Test: NCI tumour cell line growth inhibition, 48 h
molecules and their reported GI50

{"columns": ["molecule", "GI50"],
 "data": [
  ["CCCCCCCCc1ccc(CCC(N)(CO)CO)cc1", "1.77 µM"],
  ["C=C1[C@@H](O)C[C@H]2C(C)(C)C[C@H](Cl)C[C@]2(C)[C@H]1C[C@H](O)[C@H]1CC(=O)NC1=O", "0.0218 µM"],
  ["C[CH2][Ge]([CH2]C)([CH2]C)[O]C(=O)C([O][Ge]([CH2]C)([CH2]C)[CH2]C)c1ccccc1 (stereo not given)", "25.7 µM"],
  ["Cc1ccc(N(/C=C/C(=O)C(F)(F)F)CC(=O)c2ccc(Cl)c(Cl)c2)cc1", "14.9 µM"],
  ["CC(C)c1ccc(/C=N/N=C(N)N)cc1", "12.2 µM"]
]}

* * *

The compounds listed here are annotated with their TGI.
System: NCI-H226 lung
Experiment: NCI tumour cell line growth inhibition, 48 h
Where a SMILES comes first, the peptide text is derived from it. The star is where a group is joined. Boc = CC(C)(C)OC(=O)*; Bn = c1ccc(C*)cc1

{"columns": ["compound", "relation.operator", "TGI (µM)"],
 "data": [
  ["O=C1OC(C2Cc3ccc4c(c3C2=O)CCCC4)c2ccccc21 (stereo unspecified)", "=", 59.2],
  ["O=c1[nH]cc(COCC(O)CO)c(=O)[nH]1 (stereo unspecified)", ">", 100],
  ["COC(=O)C(CC(C)C)NC(=O)CNC(=O)C(Cc1ccc(OCc2ccccc2)cc1)NC(=O)C(COCc1ccccc1)NC(=O)OC(C)(C)C (stereo unspecified) (Boc-S(Bn)Y(Bn)GL-OMe; configuration not given here)", ">", 100],
  ["O=S1(=O)c2ccccc2-c2nccc3ccnc1c23", ">", 100],
  ["O=[N+]([O-])c1cc(Cl)ccc1S(=O)(=O)c1ccc(Cl)cc1[N+](=O)[O-]", "=", 25.1],
  ["CC1(C)N([O-])[N+](=O)C1(Br)c1ccccc1 (stereo unspecified)", ">", 100],
  ["OCc1ncc(-c2ccccc2)s1", ">", 100],
  ["COC(=O)/C=C/C(=O)Nc1cc(Cl)c(Cl)cc1CC(=O)N(C)[C@H]1CCCC[C@@H]1N1CCCC1", "=", 31.7],
  ["COc1cc2c(c(OC)c1OC)C(=O)c1c-2n(CCCN=[N+]=[N-])c(=O)c2cc([N+](=O)[O-])ccc12", ">", 100],
  ["CCOc1ccc2c(c1)C(=O)c1c-2n(CCCN)c(=O)c2cc([N+](=O)[O-])ccc12", "=", 3.26],
  ["O=[N+]([O-])c1ccc2nc3ccscc-3c2c1", ">", 100],
  ["CN(C)c1cccc(/C=C(\\C#N)c2ccccc2)c1", "=", 24.6],
  ["CC1(C)CC2C(/C1=N/O)C1(C)CCCC2(C)C1O (stereo unspecified)", ">", 100],
  ["COc1ccc2c(c1)C1c3ccccc3CCN1CCC2 (stereo unspecified)", ">", 100],
  ["CN(C(=O)c1cc2c(s1)sc1c(=O)n(C)c3ccccc3c12)c1ccccc1", ">", 100],
  ["Cc1nnc2n1N=C(c1ccc(-c3ccc([N+](=O)[O-])cc3)o1)CS2", ">", 100],
  ["C/C(=C1/N=C(c2ccccc2)OC1=O)c1ccccc1", ">", 100],
  ["COC(=O)/C=C1/OC(c2ccc(C)cc2C)=CC1=O", "=", 48.9],
  ["N=C(N)SCCN1CCCCC1", "=", 47.7],
  ["Cc1cccc2cc3cccc(C(=O)NCCN(C)C)c3nc12", "=", 0.343],
  ["C=C1[C@@H](O)C[C@H]2C(C)(C)C[C@H](Cl)C[C@]2(C)[C@H]1C[C@H](O)[C@H]1CC(=O)NC1=O", "=", 0.19]
]}

* * *

Tested on: TK-10 renal
Test: NCI tumour cell line growth inhibition, 48 h
*1 amine or outer side, *2 acyl side, *3 side chain or, on linkers, in order; H or OH if unused. Where a SMILES comes first, the peptide text is derived from it. Bridges are numbered along the chain shown (N, C = ends). [ ]: non-standard residue; d: D form. X59 = COc1c(N[*:1])cccc1C(=O)O[C@H](C(=O)[C@H](C)C(=O)[*:2])C(C)C; X58 = CC(C)C[C@H](C(=O)[*:2])C(C)C(=O)C1CCCN1[*:1]; NMeY = CN[C@@H](Cc1ccc(O)cc1)C(=O)O; Lac = C[C@H](O)C(=O)O
This listing pairs compounds with measured TGI.
readout.name: TGI

{"columns": ["compound", "experimental.value"],
 "data": [
  ["COc1cc(O)c2c(=O)c(OC)c(-c3ccc(OC)c(OC)c3)oc2c1.[Zn+2]", "> 100 µM"],
  ["CC1CN=C(NS(=O)(=O)c2cc(C(=O)Nc3ccccc3)c(Cl)cc2S)NN1 (stereo not drawn)", "> 100 µM"],
  ["COc1ccc(C2SCC(=O)N2NC(=O)C(O)c2ccccc2)cc1 (stereo not drawn)", "> 100 µM"],
  ["CCCC(=O)O[C@]1(C)CC[C@@H]2[C@H]3[C@@H]1[C@@H]1C/C(C)=C\\CC[C@](C)(OC(=O)[C@@H]2C)[C@H]3O1", "> 100 µM"],
  ["Cc1c(-c2ccccc2)c(C#N)c2nnn(C)c(=O)n12", "> 100 µM"],
  ["CNC(=O)OCc1nc(N=[N+]=[N-])n(C)c1COC(=O)NC", "> 100 µM"],
  ["O=C(/C=C/c1ccc(O)cc1)c1cc(-c2cc(CCC(=O)c3ccc(O)cc3O)ccc2O)c(O)cc1O", "> 50 µM"],
  ["Cc1ccc(S(=O)(=O)NC(=O)NCC(N)=O)cc1", "> 100 µM"],
  ["Oc1c(Cl)cc(CN(Cc2cc(Cl)c(O)c(Cl)c2)C2CCCCC2)cc1Cl", "> 100 µM"],
  ["COc1ccc2cc(/C=N\\NC(=O)Nc3ccc([N+](=O)[O-])cc3)ccc2c1", "14.4 µM"],
  ["CCOC(=O)Nc1ccc(C(=O)/C=C/c2ccccc2)cc1", "86.5 µM"],
  ["COc1ccc(Nc2ncc(-c3ccccc3)o2)cc1OC", "> 25 µM"],
  ["COC(=O)/C=C/C(=O)Nc1cc(Cl)c(Cl)cc1CC(=O)N(C)[C@H]1CCCC[C@@H]1N1CCCC1", "11.1 µM"],
  ["CC(C)(C)CN1[C@@H]2CCCC[C@H]2N(CC(C)(C)C)P1(=O)C(O)/C=C/c1ccccc1 (stereo partly drawn)", "> 100 µM"],
  ["Cc1cccc(/C=C2/C(=O)Nc3ccccc32)n1", "33.7 µM"],
  ["O=[N+]([O-])c1cc(Cl)ccc1S(=O)(=O)c1ccc(Cl)cc1[N+](=O)[O-]", "31.5 µM"],
  ["COc1ccc(C[C@H]2C(=O)O[C@H](C)[C@H](NC(=O)[C@@H](CC(C)C)C(C)C(=O)C3CCCN3C(=O)[C@H](C)O)C(=O)Nc3cccc(c3OC)C(=O)O[C@@H](C(C)C)C(=O)[C@H](C)C(=O)N[C@@H](CC(C)C)C(=O)N3CCC[C@H]3C(=O)N2C)cc1 (stereo partly drawn) (H-[Lac][X58]T[X59]LP[NMeY](Me); ester 3-C)", "> 12.5 µM"],
  ["C=C(CN(C)Cc1ccccc1)c1ccc(C(=O)Nc2ccccc2N)cc1", "17.8 µM"]
]}

* * *

Test system: MDA-MB-435
Outcomes: Y (active), N (inactive)

{"columns": ["compound", "test.system", "classification"],
 "data": [
  ["Cn1ccc2c3c(=O)cc[nH]c3ccc21", "MDA-MB-435", "N"],
  ["C=C1C(=O)O[C@H]2[C@H]1CC/C(COC(=O)C(=O)c1c[nH]c3ccc(Cl)cc13)=C\\CC[C@@]1(C)O[C@@H]21", "MDA-MB-435", "N"],
  ["C=C1[C@@H](O)C[C@H]2C(C)(C)C[C@H](Cl)C[C@]2(C)[C@H]1C[C@H](O)[C@H]1CC(=O)NC1=O", "MDA-MB-435", "Y"],
  ["CC(C)c1ccc(/C=N/N=C(N)N)cc1", "MDA-MB-435", "N"],
  ["COc1ccc(Nc2ncc(-c3ccccc3)o2)cc1OC", "MDA-MB-435", "N"],
  ["Clc1ccc(-c2nc(C(Cl)Cl)nc3cc(-c4ccccc4)nn23)cc1", "MDA-MB-435", "N"],
  ["CNC12C3C4C1C1C2C3C41C(=O)N[C@H](C(=O)N(C)[C@H](C[C@@H](OC(C)=O)c1nc(C(=O)N[C@@H](Cc2ccccc2)C[C@H](C)C(=O)OC)cs1)C(C)C)C1CC1 (some centres undefined)", "MDA-MB-435", "Y"],
  ["CC(=O)OC1CC2(O)C(CCC3(C)C(c4ccc(=O)oc4)CCC32O)C2(C)CCC(OC3OC(CO)C(O)C(O)C3O)C=C12 (centres undefined)", "MDA-MB-435", "Y"],
  ["CC(=O)Oc1ccccc1C(=O)NCCC[Se]C#N", "MDA-MB-435", "N"]
]}
